What melting point was measured for each of the following?

{"columns": ["compound", "melting point"],
 "data": [
  ["CC(C)(C)CC(=O)NC(Cc1ccc(OCc2ccccc2)cc1)C(=O)Nc1c(F)cc(F)cc1F (stereo not given)", "150 to 157 °C"],
  ["Cc1cccc(-n2nccc2-c2nn(-c3cccc(C(F)(F)F)c3)ccc2=O)c1", "142 to 143 °C"],
  ["CCOC(=O)C=C(c1ccc(-c2ccccc2)cc1)C1(n2cncn2)CC1", "98 to 100 °C"],
  ["CC(C)(C)OC(=O)NC(CNC(=O)c1ccccc1)C(=O)O (stereo not given)", "110 to 111 °C"]
]}

Can you give me melting point for all of these, one by one?
1. CC#CC1CCC(C2CCC(c3ccc(CCC)cc3)CC2)CC1 (stereo not given)
2. NC(=O)c1ccccc1C(=O)NCCCN1CCC(c2noc3cc(F)ccc23)CC1
3. CC1(C=O)CC1(c1cccc(F)c1)c1cccc(F)c1 (stereo not given)

["70 °C", "129 to 130 °C", "92 to 93 °C"]

Respectfully, I request melting point for each entry included below.
1. CCOC(=O)c1nnc2ccc(NC(C)=O)cc2c1O
2. Cc1cc(CNS(=O)(=O)c2ccc(Br)s2)cc(C)n1

1: 280 to 281 °C; 2: 138 °C

Which measured melting point value corresponds to "CCC(=O)Nc1cccc(NC(=O)C=C(C)OC)c1" ?
155 °C
